target: Estrogen receptor (Homo sapiens) (UniProt P03372); assay: ERalpha ligand binders by competition, primary screen, cell-based, Cos7 ERalpha-GFP, flow cytometry (AID 1211); details: fluorescent ligand competition, binding inhibition, at 0.1 µM, stronger effect = higher value;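 also: 0% = DMSO vehicle wells and 100% = no E2-Alexa633 signal left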
Sequence (P03372 whole entry, looked up): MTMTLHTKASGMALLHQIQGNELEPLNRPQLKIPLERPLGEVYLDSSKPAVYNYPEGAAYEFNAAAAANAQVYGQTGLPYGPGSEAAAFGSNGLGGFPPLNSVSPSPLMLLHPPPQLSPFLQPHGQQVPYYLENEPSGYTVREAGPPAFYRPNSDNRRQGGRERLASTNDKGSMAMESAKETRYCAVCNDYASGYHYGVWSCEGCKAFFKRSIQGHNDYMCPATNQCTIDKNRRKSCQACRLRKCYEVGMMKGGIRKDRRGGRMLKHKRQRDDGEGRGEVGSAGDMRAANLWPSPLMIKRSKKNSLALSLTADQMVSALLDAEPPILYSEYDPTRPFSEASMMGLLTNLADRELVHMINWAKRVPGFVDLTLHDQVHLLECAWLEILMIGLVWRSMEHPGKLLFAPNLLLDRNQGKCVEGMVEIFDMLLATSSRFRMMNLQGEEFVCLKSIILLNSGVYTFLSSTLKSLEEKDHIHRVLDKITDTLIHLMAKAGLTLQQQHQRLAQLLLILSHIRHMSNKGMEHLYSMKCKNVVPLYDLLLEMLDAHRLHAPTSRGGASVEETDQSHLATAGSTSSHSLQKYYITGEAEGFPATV
metric: inhibition of ligand binding (%)
One number for each entry, in %.

// solved cases for inhibition of ligand binding follow
CC1(C)CCCN(C(=O)c2coc(=O)c(Br)c2)C1
25
Cc1ccc(-n2c(=O)c(C#N)cc3c(=O)n4cccc(C)c4nc32)cc1
32
Nc1ccc2oc(-c3ccccc3Cl)cc(=O)c2c1O
30

List the reported inhibition of ligand binding of each molecule below.
1. COc1ccc(CNC(=O)c2cc(-c3cccs3)on2)cc1
2. CN1CCc2cccc3c2[C@@H]1Cc1ccc(O)c(O)c1-3
3. Cc1ccc(C(=O)N/N=C/c2ccc([N+](=O)[O-])s2)cc1
4. Cn1c(SCC(=O)Nc2sccc2C#N)nnc1-c1ccccc1
5. Cc1noc(C)c1COC(=O)c1cc2c3ccccc3n(C)c2s1

Data returned:
1. 90
2. 6
3. 73
4. 24
5. 33

Batch lookup, inhibition of ligand binding per entry.
1. O=C(Cc1coc2cc3c(cc12)CCC3)OCc1cc(=O)n2c(n1)sc1ccccc12
2. O=C(O)c1cc(-c2ccco2)nc2ccccc12
3. CC1(C)Cc2c(sc3c4nnnn4c4nnnn4c23)CO1
4. O=C(Oc1ccc(-c2cnc3ccccc3n2)cc1)c1ccc(Br)o1
5. CCOC(=O)c1cc2c(c(CSc3nc4ccccc4c(=O)n3Cc3ccco3)c1)OCOC2
6. Oc1ccccc1C1=Nc2ccccc2N=C(c2cccs2)C1
7. Cc1nnc(NC(=O)Cc2cccs2)s1
8. CNc1nnc(-c2cc3cc(Cl)ccc3oc2=O)s1

Data returned:
9
21
21
1
18
54
42
58

----------
target: Estrogen receptor (Homo sapiens) (UniProt P03372); assay: ERalpha ligand binders by competition, primary screen, cell-based, Cos7 ERalpha-GFP, flow cytometry (AID 1211); conditions: fluorescent ligand competition, at 10 µM;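 also: 0% = DMSO vehicle wells and 100% = no E2-Alexa633 signal left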
The source made the active and inactive calls. The rule behind the calls is not given here.
Thanks in advance; please answer with one of these: active, inactive

O=C(NC1CCN(C(=O)N2c3ccccc3Sc3ccccc32)CC1)c1ccccc1Cl
inactive
COc1cc2c(cc1OC)C(Cc1ccc(O)cc1)N(C)CC2 (stereo not drawn)
inactive

Data request: Write down the call the test reported for this molecule. Item: `Oc1ccc(/C=C/c2nc(-c3ccccc3O)n(-c3ccccc3)n2)cc1`
Data returned: inactive

Data request: What classification did `Cn1c(-c2ccc3nc(N)sc3c2)nc2cc(N)ccc21` end up with in this test?
Data returned: inactive

Data request: // outcome(item) with item = `COc1cc2c3c(c1)/C(=C1/SC(NC(C)=O)=NC1=O)C(=O)N3C(C)(C)C=C2C`
Data returned: inactive

----------
target: Estrogen receptor (Homo sapiens); test: ERalpha ligand binders by competition, primary screen, cell-based, Cos7 ERalpha-GFP, flow cytometry (AID 1211); settings: fluorescent ligand competition, at 10 µM, stronger effect = higher value;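 also: 0% = DMSO vehicle wells and 100% = no E2-Alexa633 signal left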
metric: inhibition of ligand binding (%)
Give bare numbers, in %.

Cc1ccc(C(=O)NCC(=O)OCC(=O)c2c(N)n(C)c(=O)n(C)c2=O)s1
14
NS(=O)(=O)c1ccc2c(c1)C1C=CCC1C(C1CC=CCC1)N2 (stereo unspecified)
69
Nc1ccc2nc(-c3cccs3)[nH]c2c1
10
CN(C)C(=O)c1ccc2c(c1)C1C3CCC(C3)C1C(c1ccccc1)N2 (stereo unspecified)
0
Nc1c(Cl)cc(Cl)cc1C(=O)OCC(=O)NC1CC1
52

Data request: Entry under review: `CCOC(=O)Cc1csc(NC(=O)Cc2cccs2)n1` . Reported inhibition of ligand binding?
Data returned: 28

Data provenance: PubChem BioAssay AID1211
